- RUN_DESCRIPTION: Pharmacokinetics of released PEGylated protease inhibitor following P.O. administration of prodrugs in rats
- Assay type: in vivo, male Sprague-Dawley rats
- TEST_CONTEXT: mPEG3-atazanavir in plasma after PO administration of mPEG3-ATV or of the listed prodrug, rats (n = 4-5)
# Cmax Mean per entry
QUANTITY: Cmax Mean (ng/mL)

MOLECULE	READOUT_VALUE
COCCOCCOCCOC(=O)NC(C(=O)NC(Cc1ccccc1)C(CN(Cc1ccc(-c2ccccn2)cc1)NC(=O)C(NC(=O)OC)C(C)(C)C)OC(=O)C(N)C(C)C)C(C)(C)C.Cl [mPEG3-ATV-L-valine, mPEG3-Atazanavir-L-valine HCl]	11.8
COCCOCCOCCOC(=O)N[C@H](C(=O)N[C@@H](Cc1ccccc1)[C@H](CN(Cc1ccc(-c2ccccn2)cc1)NC(=O)[C@@H](NC(=O)OC)C(C)(C)C)OP(=O)(O)O)C(C)(C)C [mPEG3-ATV-phosphate, mPEG3-atazanavir phosphate]	1.66
CCOC(CC)OC(CN(Cc1ccc(-c2ccccn2)cc1)NC(=O)C(NC(=O)OC)C(C)(C)C)C(Cc1ccccc1)NC(=O)C(NC(=O)OCCOCCOCCOC)C(C)(C)C (mixture of isomers)	153
CCOC(C)OC(CN(Cc1ccc(-c2ccccn2)cc1)NC(=O)C(NC(=O)OC)C(C)(C)C)C(Cc1ccccc1)NC(=O)C(NC(=O)OCCOCCOCCOC)C(C)(C)C (mixture of isomers)	154
COCCOCCOCCOC(=O)NC(C(=O)NC(Cc1ccccc1)C(CN(Cc1ccc(-c2ccccn2)cc1)NC(=O)C(NC(=O)OC)C(C)(C)C)OC(=O)C(N)CC(C)C)C(C)(C)C.Cl (centres unmarked)	66.0
CCCCCCCCCCCCCCCCOCC(COP(=O)(O)OC(CN(Cc1ccc(-c2ccccn2)cc1)NC(=O)C(NC(=O)OC)C(C)(C)C)C(Cc1ccccc1)NC(=O)C(NC(=O)OCCOCCOCCOC)C(C)(C)C)OC (centres unmarked)	18.7
CCOC(=O)OC(CN(Cc1ccc(-c2ccccn2)cc1)NC(=O)C(NC(=O)OC)C(C)(C)C)C(Cc1ccccc1)NC(=O)C(NC(=O)OCCOCCOCCOC)C(C)(C)C (centres unmarked) [mPEG3-atazanavir ethyl carbonate, mPEG3-Atazanavir Ethyl Carbonate]	17.9
CCCC(=O)O[C@@H](CN(Cc1ccc(-c2ccccn2)cc1)NC(=O)[C@@H](NC(=O)OC)C(C)(C)C)[C@H](Cc1ccccc1)NC(=O)[C@@H](NC(=O)OCCOCCOCCOC)C(C)(C)C [C3H7CO-mPEG3-ATV, mPEG3-Atazanavir Butyrate]	3.08
